// data source = the Immune Epitope Database (IEDB)

Kd values for the sequences below.
# study system: HLA-A*30:01
# method notes: IEDB peptide-MHC binding, purified MHC/competitive/radioactivity; filed as Kd, often an IC50 or EC50 that approximates it; bounds were set here for any values at or beyond the usual limits of such assays
# recorded conditions: source organism: Dengue virus 2 Jamaica/1409/1983
endpoint label: Kd (µM)

> print(dat)
   sequence.text  study.system  assay.value
1     PTSRTTWSIH   HLA-A*30:01         4.07
2     GVFPVSIPIT   HLA-A*30:01         7.36
3     DEAHFTDPAS   HLA-A*30:01         13.9
4      RFLTIPPTA   HLA-A*30:01       0.0605
